- Test system: cerebral blood flow of cats
- METHOD SUMMARY: Investigation of cerebral blood flow of cats (heat-conducting thermoprobe according to Hensel)
- Assay type: in vivo
- TEST PARAMETERS: 10 mg/kg i.v., heat transfer factor λ
Would you mind telling me the reported Change of blood perfusion Δ λ of each entry?
Format: numeric value only, no unit, no commentary.

Suppose we examine the compound CC(O)Cn1c(=O)c2c(ncn2C)n(C)c1=O (stereo not shown) [1-(2-hydroxypropyl)-3,7-dimethylxanthine] ; what Change of blood perfusion Δ λ value has been reported? -0.50

Please look up its Change of blood perfusion Δ λ: Cn1c(=O)c2c(ncn2CCO)n(C)c1=O [7-(2-hydroxyethyl)-1,3-dimethylxanthine] -1.33

====

- METHOD SUMMARY: Toxicity in mg/kg (mouse)
- TEST PARAMETERS: in vivo, ip
PARAMETER: LD50

Requested read-out: LD50. Entry: Cn1c(=O)c2[nH]cnc2n(C)c1=O.NCCN [theophylline-ethylenediamine, 1,3-dimethylxanthine-ethylene-diamine] 217 mg/kg

Which measured LD50 value corresponds to CC(O)CCCCCn1cnc2c1c(=O)n(C)c(=O)n2C (stereo not drawn) ? 250 to 500 mg/kg

Need LD50, item CC(O)CCCCn1cnc2c1c(=O)n(C)c(=O)n2C (stereo not drawn) [1,3-dimethyl-7-(5-hydroxyhexyl)-xanthine] 250 to 500 mg/kg

====

- METHOD SUMMARY: Toxicity in mg/kg (mouse)
- TEST PARAMETERS: in vivo, iv
PARAMETER: LD50 (mg/kg)
// return numeric value only (unit: mg/kg, not printed)

Suppose we examine the molecule CC(O)CCCCn1c(=O)c2c(ncn2C)n(C)c1=O (stereo not shown) [1-(5-hydroxyhexyl)-3,7-dimethylxanthine] ; what LD50 value has been reported? 195
